Task for the reader: assign each of the following molecules its reported KIDNEY_R.
# Species on record: Rattus norvegicus
# experimental-protocol: Open TG-GATES - Regimen: Single
# Format: toxicity, organism-based, Sprague-Dawley
# Parameters: regimen Single, gender Male, age 6 weeks
# experimental-conditions: in vivo, po, 300 mg/kg, 24 h, tissue Kidney, route gavage, dose level Middle
Answers are plain numbers, in g.

Here are 5 molecules. What values of KIDNEY_R were reported for them?
1. CNC(=C[N+](=O)[O-])NCCSCc1ccc(CN(C)C)o1
2. Cc1nnc2n1-c1ccc(Cl)cc1C(c1ccccc1Cl)=NC2
3. O=C(OC[C@H]1O[C@@H](OC(=O)c2cc(O)c(O)c(OC(=O)c3cc(O)c(O)c(O)c3)c2)[C@H](OC(=O)c2cc(O)c(O)c(OC(=O)c3cc(O)c(O)c(O)c3)c2)[C@@H](OC(=O)c2cc(O)c(O)c(OC(=O)c3cc(O)c(O)c(O)c3)c2)[C@@H]1OC(=O)c1cc(O)c(O)c(OC(=O)c2cc(O)c(O)c(O)c2)c1)c1cc(O)c(O)c(OC(=O)c2cc(O)c(O)c(O)c2)c1
4. CN/C(=N/CCSCc1nc[nH]c1C)NC#N
5. COC(=O)C1=C(C)NC(C)=C(C(=O)OC)C1c1ccccc1[N+](=O)[O-]

*A*
1. 1
2. 0.9
3. 0.9
4. 1
5. 0.9

* * *

Task for the reader: assign each of the following molecules its reported A/G.
# Organism: Rattus norvegicus
# experimental-protocol: Open TG-GATES - Regimen: Single
# Format: toxicity, organism-based, Sprague-Dawley
# Parameters: regimen Single, gender Male, age 6 weeks
# experimental-conditions: in vivo, po, 1000 mg/kg, 9 h, tissue Plasma, route gavage, dose level High

Sample answers from the record:
compound=CNC(=C[N+](=O)[O-])NCCSCc1ccc(CN(C)C)o1 recorded_value=1.6
compound=O=C(OC[C@H]1O[C@@H](OC(=O)c2cc(O)c(O)c(OC(=O)c3cc(O)c(O)c(O)c3)c2)[C@H](OC(=O)c2cc(O)c(O)c(OC(=O)c3cc(O)c(O)c(O)c3)c2)[C@@H](OC(=O)c2cc(O)c(O)c(OC(=O)c3cc(O)c(O)c(O)c3)c2)[C@@H]1OC(=O)c1cc(O)c(O)c(OC(=O)c2cc(O)c(O)c(O)c2)c1)c1cc(O)c(O)c(OC(=O)c2cc(O)c(O)c(O)c2)c1 recorded_value=2.3
compound=CN/C(=N/CCSCc1nc[nH]c1C)NC#N recorded_value=1.7

*Q* Dear colleague, please send me the reported A/G for `Cc1nnc2n1-c1ccc(Cl)cc1C(c1ccccc1Cl)=NC2` when you can.
*A* 0.9

* * *

# Organism: Rattus norvegicus
# experimental-protocol: Open TG-GATES - Regimen: Daily Repeat
# Format: toxicity, organism-based, Sprague-Dawley
# Design: regimen Daily Repeat, gender Male, age 6 weeks
# experimental-conditions: in vivo, po, 100 mg/kg, […], tissue Blood, route gavage, dose level Low, time 14 day
Task for the reader: assign each of the following compounds its reported RBC.
One number for each entry, in x10_4/ul.

Sample answers from the record:
compound=CCOc1ccc(NC(C)=O)cc1 recorded_value=740.8
compound=O=C(OC[C@H]1O[C@@H](OC(=O)c2cc(O)c(O)c(OC(=O)c3cc(O)c(O)c(O)c3)c2)[C@H](OC(=O)c2cc(O)c(O)c(OC(=O)c3cc(O)c(O)c(O)c3)c2)[C@@H](OC(=O)c2cc(O)c(O)c(OC(=O)c3cc(O)c(O)c(O)c3)c2)[C@@H]1OC(=O)c1cc(O)c(O)c(OC(=O)c2cc(O)c(O)c(O)c2)c1)c1cc(O)c(O)c(OC(=O)c2cc(O)c(O)c(O)c2)c1 recorded_value=685.8

*Q* Dear colleague, please send me the reported RBC for `CN/C(=N/CCSCc1nc[nH]c1C)NC#N` when you can.
*A* 737.8

Sourced from ChEMBL document CHEMBL3885861
